Source of measurements: paper PMC9352467

# procedure_text: Plasma pharmacokinetic studies
# Assay type: in vivo, Sprague-Dawley (SD) rats
# details: male, Sprague-Dawley, rat, oral, 3 mg/kg
measured_property: bioavailability (%)

chem_smiles=NS(=O)(=O)OC[C@@H]1C[C@@H](n2ccc3c(N[C@H]4CCc5ccccc54)ncnc32)C[C@@H]1O observed=12.4

----------
# procedure_text: Plasma pharmacokinetic studies
# Format: in vivo, Sprague-Dawley (SD) rats
# details: male, Sprague-Dawley, rat, po, 3 mg/kg
measured_property: Cmax (ng/mL)

compound="NS(=O)(=O)OC[C@@H]1C[C@@H](n2ccc3c(N[C@H]4CCc5ccccc54)ncnc32)C[C@@H]1O [MLN4924]" measured_property=Cmax observed=64
